# System: MYCN
# experimental.protocol: 3' UTR reporter interaction score (median-centred robust z-score of log2 firefly/Renilla activity); higher = less repression of the 3' UTR reporter
# condition.details: HEK293T; 48 h
Entries and their measured 3' UTR reporter interaction score follow.

sequence	test.system	3' UTR reporter interaction score
UAGUGCAAUAUUGCUUAUAGGGUUU	MYCN	0.515
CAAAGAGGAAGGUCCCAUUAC	MYCN	0.419
AGACUUCCCAUUUGAAGGUGGC	MYCN	-2.21
UGAUUGGUACGUCUGUGGGUAGA	MYCN	0.569
AUUACAUGGCCAAUCUC	MYCN	0.193
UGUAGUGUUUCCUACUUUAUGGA	MYCN	1.22
UUGCAUAGUCACAAAAGUGA	MYCN	0.143
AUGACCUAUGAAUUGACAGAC	MYCN	1.35
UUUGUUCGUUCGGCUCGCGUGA	MYCN	-0.313
UCUACAAAGGGAAGCCCUUUCUG	MYCN	0.12
AAAGCGCUUCCCUUCAGAGUGU	MYCN	-0.904
UCUAGGCUGGUACUGCUGA	MYCN	0.628
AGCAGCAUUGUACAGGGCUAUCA	MYCN	0.215
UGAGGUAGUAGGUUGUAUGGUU	MYCN	-4.05
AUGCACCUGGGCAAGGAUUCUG	MYCN	-0.703
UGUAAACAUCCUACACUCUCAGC	MYCN	-0.445
AGUGACAUCACAUAUACGGCAGC	MYCN	0.321
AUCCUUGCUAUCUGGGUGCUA	MYCN	1.2
UGCUUCCUUUCAGAGGGU	MYCN	0.0627
ACUAGACUGAAGCUCCUUGAGG	MYCN	0.903
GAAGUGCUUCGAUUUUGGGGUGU	MYCN	0.643
UUUCCUAUGCAUAUACUUCUUU	MYCN	0.517
GCAAAGCACACGGCCUGCAGAGA	MYCN	-0.217
AGGGGGAAAGUUCUAUAGUCCU	MYCN	0.426
AUCGUGCAUCCCUUUAGAGUGUU	MYCN	0.792
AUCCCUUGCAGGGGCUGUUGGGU	MYCN	0.104
UUAAGACUUGCAGUGAUGUUUAA	MYCN	0.438
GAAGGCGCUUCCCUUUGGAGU	MYCN	-0.406
UCGGGGAUCAUCAUGUCACGAG	MYCN	-0.0751
UAAGGUGCAUCUAGUGCAGUUA	MYCN	0.0551
AGCUGUCUGAAAAUGUCUU	MYCN	-0.701
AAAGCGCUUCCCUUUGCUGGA	MYCN	-0.601
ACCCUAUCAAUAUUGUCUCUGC	MYCN	0.109

* * *

# Test system: HRAS
# experimental.protocol: 3' UTR reporter interaction score (median-centred robust z-score of log2 firefly/Renilla activity); higher = less repression of the 3' UTR reporter
# condition.details: HEK293T; 48 h

sequence	test.system	3' UTR reporter interaction score
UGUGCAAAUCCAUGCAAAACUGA	HRAS	-1.63
AAACUCUACUUGUCCUUCUGAGU	HRAS	0.16
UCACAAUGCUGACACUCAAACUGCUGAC	HRAS	-0.335
AAAAGCUGGGUUGAGAGGGCGAA	HRAS	-0.583
AAAAGUGCUUACAGUGCAGGUAGC	HRAS	0.892
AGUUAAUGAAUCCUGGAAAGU	HRAS	-0.441
AUCAGCAAACAUUUAUUGUGUG	HRAS	-1.06
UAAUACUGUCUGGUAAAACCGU	HRAS	0.264
UAGGUAGUUUCAUGUUGUUGG	HRAS	-0.663
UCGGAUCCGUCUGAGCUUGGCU	HRAS	1.22
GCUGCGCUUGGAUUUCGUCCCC	HRAS	-0.573
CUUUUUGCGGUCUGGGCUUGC	HRAS	0.493
CUCUAGAGGGAAGCGCUUUCUGUU	HRAS	-0.0223
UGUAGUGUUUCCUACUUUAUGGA	HRAS	0.941
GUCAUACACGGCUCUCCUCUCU	HRAS	0.779

The measurements presented in this section are drawn from the supplement of paper PMC5844555.
